The following compounds are shown together with reported melting point values.
PROPERTY NAME: melting point

>  <COMPOUND>
CC(C)(C)OC(=O)N[C@H]1CCCCC/C=C\[C@@H]2C[C@@]2(C(=O)NS(=O)(=O)C2CC2)NC(=O)[C@@H]2C[C@@H](OC(=O)c3ccc(-n4cccn4)cc3)CN2C1=O [Compound 32]

>  <ASSAY VALUE>
167 to 169 °C

$$$$
>  <COMPOUND>
CC(C)(C)OC(=O)N[C@H]1COCCC/C=C\[C@@H]2C[C@@]2(C(=O)NS(=O)(=O)C2CC2)NC(=O)[C@@H]2C[C@@H](OC(=O)c3ccccc3)CN2C1=O [Compound 12]

>  <ASSAY VALUE>
135 to 137 °C

$$$$
>  <COMPOUND>
CC(C)(C)OC(=O)N[C@H]1CCCCC/C=C\[C@@H]2C[C@@]2(C(=O)NS(=O)(=O)C2CC2)NC(=O)[C@@H]2C[C@@H](OC(=O)c3cnccn3)CN2C1=O [Compound 27]

>  <ASSAY VALUE>
150 to 152 °C

$$$$
>  <COMPOUND>
CC(C)(C)OC(=O)N[C@H]1CCCCC/C=C\[C@@H]2C[C@@]2(C(=O)NS(=O)(=O)C2CC2)NC(=O)[C@@H]2C[C@@H](OC(=O)c3ccc(Cl)cc3)CN2C1=O [Compound 21]

>  <ASSAY VALUE>
143 to 145 °C

$$$$
>  <COMPOUND>
Cc1cc(C(=O)O[C@@H]2C[C@H]3C(=O)N[C@]4(C(=O)NS(=O)(=O)C5CC5)C[C@H]4/C=C\CCCCC[C@H](NC(=O)OC(C)(C)C)C(=O)N3C2)n(C)n1 [Compound 35]

>  <ASSAY VALUE>
149 to 151 °C

$$$$
>  <COMPOUND>
CC(C)(C)OC(=O)N[C@H]1COCCC/C=C\[C@@H]2C[C@@]2(C(=O)NS(=O)(=O)C2CC2)NC(=O)[C@@H]2C[C@@H](OC(=O)Nc3ccccc3-c3ccccc3)CN2C1=O [Compound 42]

>  <ASSAY VALUE>
147 to 149 °C

$$$$
>  <COMPOUND>
CC(C)(C)OC(=O)N[C@H]1COCCC/C=C\[C@@H]2C[C@@]2(C(=O)NS(=O)(=O)C2CC2)NC(=O)[C@@H]2C[C@@H](OC(=O)N3CCc4ccccc43)CN2C1=O [Compound 45]

>  <ASSAY VALUE>
128 to 130 °C

$$$$
>  <COMPOUND>
CC(C)(C)OC(=O)N[C@H]1CCCOC/C=C\[C@@H]2C[C@@]2(C(=O)NS(=O)(=O)C2CC2)NC(=O)[C@@H]2C[C@@H](OC(=O)C(C)(C)C)CN2C1=O [Compound 4]

>  <ASSAY VALUE>
143 to 145 °C

$$$$
>  <COMPOUND>
CC(C)(C)OC(=O)N[C@H]1CCCCC/C=C\[C@@H]2C[C@@]2(C(=O)NS(=O)(=O)C2CC2)NC(=O)[C@@H]2C[C@@H](OC(=O)c3cccc(OC(F)(F)F)c3)CN2C1=O [Compound 17]

>  <ASSAY VALUE>
132 to 134 °C

$$$$
>  <COMPOUND>
CC(C)(C)OC(=O)N[C@H]1CCCCC/C=C\[C@@H]2C[C@@]2(C(=O)NS(=O)(=O)C2CC2)NC(=O)[C@@H]2C[C@@H](OC(=O)c3ccc(F)cc3)CN2C1=O [Compound 29]

>  <ASSAY VALUE>
154 to 156 °C

$$$$
